Tested on: HL-60(TB) leukemia
Assay: NCI tumour cell line growth inhibition, 48 h
Each record here notes measured TGI.

[[record]]
compound = "CC1C(=O)C(C)C(c2ccccc2)N(N=O)C1c1ccccc1 (stereo not drawn)"
test_result = "> 1000 µM"

[[record]]
compound = "Cc1ccc(C(O)c2cnc(C)n2Cc2ccccc2)cc1 (stereo not drawn)"
test_result = "> 100 µM"


For the next question, use this compound.
# assay system HL-60(TB) leukemia: give TGI of `S=C1N=C(Cl)C2(NN1)c1ccccc1-c1ccccc12`
> 10 µM

---

Each record here notes measured TGI.
System: HCT-116 colon
Assay: NCI tumour cell line growth inhibition, 48 h
The reply should be a number in µM, with the unit left off.

Annotate the compound `CCc1cc(O)c(Cl)c(C)c1Cl` with its measured TGI.
31.5

Annotate the compound `COc1ccc2oc3cccc(NCCN(C)C)c3c(=O)c2c1` with its measured TGI.
19.8

Annotate the compound CC(=O)O[C@@H]1CC2C(C)(C)CCCC2(C)C2=C1C(=O)C(C(C)C)=CC2=O (stereo partly drawn) with its measured TGI.
2.8

Annotate the compound `C=C1C(=O)O[C@H]2[C@H]1CC/C(COC(=O)N1CCC[C@H]1C(=O)Nc1ccc(OC)c(C(N)=O)c1O)=C\CC[C@@]1(C)O[C@@H]21` with its measured TGI.
3.06

Annotate the compound `COc1ccc(-c2cncn2-c2ccc(OC)cc2)cc1` with its measured TGI.
44

Annotate the compound `C[C@H]1[C@H](C)CC[C@]2(C(=O)O)CC[C@]3(C)C(=CC[C@@H]4[C@@]5(C)C/C(=C/c6cccnc6)[C@H](O)C(C)(C)[C@@H]5CC[C@]43C)[C@H]12` with its measured TGI.
26.8

Annotate the compound `CO/N=C(\C)c1ccc(Nc2cc(-c3ccccc3)nc3c(O)cccc23)cc1` with its measured TGI.
52.7

Annotate the compound `ClCc1c(Cl)c(Cl)c(Cl)c(CCl)c1Cl` with its measured TGI.
3.17

Annotate the compound `NC(=O)N1N=C2c3ccccc3SC[C@H]2[C@@H]1c1ccccc1` with its measured TGI.
28.2

Annotate the compound `Cc1nc2sc(C(=O)Nc3ccccc3)c(N)c2cc1C(=O)/C=C/c1ccccc1` with its measured TGI.
2.97

Annotate the compound `C#C[C@]1(O)CC[C@H]2[C@@H]3CCc4cc(OC(=O)c5cccc6cc7ccccc7nc56)ccc4[C@H]3CC[C@@]21C` with its measured TGI.
80.1

Annotate the compound `CCN(Cc1ccccc1OC)c1ccc(CO)c(Cl)c1` with its measured TGI.
8.77

Annotate the compound `CN(C)c1ccc2cc(-c3ccccc3F)c(N)nc2c1` with its measured TGI.
11

Annotate the compound CCC1C(c2cc(OC)c(OC)c(OC)c2)c2cc3c(cc2OC1N1CCOCC1)OCO3 (stereo not drawn) with its measured TGI.
13.4

Annotate the compound `COc1cc2c(c(OC)c1OC)-c1ccc(SC)cc1[C@H](OC(=O)c1ccccc1)CC2` with its measured TGI.
1.45
